Sourced from ChEMBL document CHEMBL5143693

Recorded pIC50 by entry
- testedOn: Fatty-acid amide hydrolase 1 (Homo sapiens)
pIC50: −log10 of the molar value.
parameterMeasured: pIC50

| smilesStr | dataValue |
| --- | --- |
| O=C(Oc1ccc([N+](=O)[O-])cc1)N1CCN(S(=O)(=O)c2ccc(Oc3ccccc3)cc2)CC1 | 6.49 |
| O=C(Oc1ccc([N+](=O)[O-])cc1)N1CCN(S(=O)(=O)c2ccc(Oc3ncc(C(F)(F)F)cc3Cl)cc2)CC1 | 5.53 |
| CCCCc1ccc(S(=O)(=O)N2CCN(C(=O)Oc3ccc([N+](=O)[O-])cc3)CC2)cc1 | 6.75 |

====

- testedOn: Fatty-acid amide hydrolase 1 (Homo sapiens, UniProt O00519)
- Sequence (O00519 whole entry): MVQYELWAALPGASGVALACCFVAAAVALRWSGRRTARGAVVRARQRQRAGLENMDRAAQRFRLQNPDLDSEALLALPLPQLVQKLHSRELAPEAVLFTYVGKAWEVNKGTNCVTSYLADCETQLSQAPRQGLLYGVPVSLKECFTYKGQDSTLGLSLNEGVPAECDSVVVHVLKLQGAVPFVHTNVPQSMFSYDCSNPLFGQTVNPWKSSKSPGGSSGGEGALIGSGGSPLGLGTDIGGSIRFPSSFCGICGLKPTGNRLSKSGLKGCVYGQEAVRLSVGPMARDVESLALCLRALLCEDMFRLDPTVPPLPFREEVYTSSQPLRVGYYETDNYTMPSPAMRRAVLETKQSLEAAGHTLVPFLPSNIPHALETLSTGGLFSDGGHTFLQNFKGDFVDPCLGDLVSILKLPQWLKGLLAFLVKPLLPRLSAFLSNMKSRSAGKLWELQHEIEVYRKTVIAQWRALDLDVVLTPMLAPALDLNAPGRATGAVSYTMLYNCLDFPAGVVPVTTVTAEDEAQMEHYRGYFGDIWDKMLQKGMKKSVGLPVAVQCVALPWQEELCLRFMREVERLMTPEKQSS
pIC50: −log10 of the molar value.
Recorded pIC50 by entry

| smilesStr | pIC50 |
| --- | --- |
| O=C(Oc1ccc([N+](=O)[O-])cc1)N1CCN(S(=O)(=O)c2ccc(-c3ccccc3)cc2)CC1 | 6.36 |
| O=C(Oc1ccc([N+](=O)[O-])cc1)N1CCN(S(=O)(=O)c2ccc(Oc3ccc(Cl)cc3)cc2)CC1 | 6.82 |
| O=C(Oc1ccc([N+](=O)[O-])cc1)N1CCN(S(=O)(=O)c2ccc(Oc3ccccc3Cl)cc2)CC1 | 5.94 |
| O=C(Oc1ccc([N+](=O)[O-])cc1)N1CCN(S(=O)(=O)c2ccc(Oc3ccc(Cl)c(Cl)c3)cc2)CC1 | 6.50 |

====

- assayRemarks: Permeability of the compound by measuring lambda maximum incubated for 18 hrs by PAMPA method
- Format: ADME
- conditionInfo: read-out: permeability
Recorded Papp at 18 h by entry
parameterMeasured: Papp at 18 h (×10⁻⁶ cm/s)

| smilesStr | dataValue |
| --- | --- |
| O=C(Oc1ccc([N+](=O)[O-])cc1)N1CCN(S(=O)(=O)c2ccc(Oc3ccc(Cl)c(Cl)c3)cc2)CC1 | 0.31 |
| O=C(Oc1ccc([N+](=O)[O-])cc1)N1CCN(S(=O)(=O)c2ccc(C3CCCCC3)cc2)CC1 | 0.24 |
| O=C(Oc1ccc([N+](=O)[O-])cc1)N1CCN(S(=O)(=O)c2ccc(-c3ccccc3)cc2)CC1 | 0.19 |
| O=C(Oc1ccc([N+](=O)[O-])cc1)N1CCN(S(=O)(=O)c2ccc(Oc3ccc(Cl)cc3)cc2)CC1 | 0.24 |
| CCCCc1ccc(S(=O)(=O)N2CCN(C(=O)Oc3ccc([N+](=O)[O-])cc3)CC2)cc1 | 0.26 |
| O=C(Oc1ccc([N+](=O)[O-])cc1)N1CCN(S(=O)(=O)c2ccc(Oc3ccccc3Cl)cc2)CC1 | 0.27 |
| O=C(Oc1ccc([N+](=O)[O-])cc1)N1CCN(S(=O)(=O)c2ccc(Oc3ncc(C(F)(F)F)cc3Cl)cc2)CC1 | 0.23 |
| O=C(Oc1ccc([N+](=O)[O-])cc1)N1CCN(S(=O)(=O)c2ccc(Oc3cccc(Cl)c3)cc2)CC1 | 0.23 |
| O=C(Oc1ccc([N+](=O)[O-])cc1)N1CCN(S(=O)(=O)c2ccc(Oc3ccccc3)cc2)CC1 | 0.23 |
| O=C(Oc1ccc([N+](=O)[O-])cc1)N1CCN(S(=O)(=O)c2ccc3ccccc3c2)CC1 | 0.26 |
| O=C(Oc1ccc([N+](=O)[O-])cc1)N1CCN(S(=O)(=O)c2ccc(-c3ccc(Cl)c(Cl)c3)cc2)CC1 | 0.28 |

====

Recorded IC50 by entry
- testedOn: Monoglyceride lipase (Homo sapiens, UniProt Q99685)
- Sequence (Q99685 whole entry): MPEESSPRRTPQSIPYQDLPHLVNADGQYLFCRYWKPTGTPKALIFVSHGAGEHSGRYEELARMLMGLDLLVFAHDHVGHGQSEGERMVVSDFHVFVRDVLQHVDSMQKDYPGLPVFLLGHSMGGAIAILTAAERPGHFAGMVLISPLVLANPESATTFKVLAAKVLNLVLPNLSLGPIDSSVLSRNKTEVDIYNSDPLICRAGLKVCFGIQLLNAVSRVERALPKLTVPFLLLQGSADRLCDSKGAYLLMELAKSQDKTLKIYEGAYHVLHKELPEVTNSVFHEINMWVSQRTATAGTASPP
parameterMeasured: IC50 (nM)

| smilesStr | parameterMeasured | dataValue |
| --- | --- | --- |
| CCCCc1ccc(S(=O)(=O)N2CCN(C(=O)Oc3ccc([N+](=O)[O-])cc3)CC2)cc1 | IC50 | 759 |
| O=C(Oc1ccc([N+](=O)[O-])cc1)N1CCN(S(=O)(=O)c2ccc3ccccc3c2)CC1 | IC50 | 284 |
| O=C(Oc1ccc([N+](=O)[O-])cc1)N1CCN(S(=O)(=O)c2ccc(Oc3ccc(Cl)cc3)cc2)CC1 | IC50 | 2060 |
